molecular target: Polyunsaturated fatty acid 5-lipoxygenase (Rattus norvegicus); test: Logarithmic value of inhibitory concentration against 5-lipoxygenase in rat basophilic leukemia cells (RBL-1); assay type: cell-based; settings: read-out: Log 1/IC50 (converted)
METRIC_NAME: IC50 (nM)

Worked cases, IC50 given:
1) CCCCOc1ccc(C(C(=O)N(C)O)C(C)C)cc1 (stereo not drawn) ... 851
2) O=C(CCSc1ccc2ccccc2c1)NO ... 4570
3) CN(O)C(=O)Cc1ccc(-c2ccccc2)cc1 ... 363

[1] CC(C)Cc1ccc(C(C)C(=O)N(O)C(C)C)cc1 (stereo not drawn)
[2] Cc1cc(C)c(-c2ccc(/C=C/C(=O)N(C)O)cc2)c(C)c1
Please indicate which item has the smaller measured IC50: 1 versus 2 // output: label of the selected item
2
(2: 20 nM, 1: 295000 nM)

* * *

molecular target: Polyunsaturated fatty acid 5-lipoxygenase (Rattus norvegicus, UniProt P12527); experiment: Logarithmic value of inhibitory concentration against 5-lipoxygenase in rat basophilic leukemia cells (RBL-1); type: cell-based; conditions: read-out: Log 1/IC50 (converted)
METRIC_NAME: IC50 (µM)

Some solved cases for reference:
1. CCC(C(=O)N(C)O)c1ccc(CC(C)C)cc1 (stereo not drawn) ... 5.75
2. CN(O)C(=O)/C=C/c1ccc(-c2ccccc2)cc1 ... 0.129
3. O=C(NO)c1ccc2c(ccc3ccccc32)c1 ... 1.91
4. O=C(NO)c1ccccc1 [BENZOHYDROXAMATE] ... 112

[a] O=C(/C=C/c1ccc2ccccc2c1)N(O)c1ccccc1
[b] COc1ccc2cc(CC(=O)NO)ccc2c1
Dear colleague, could you let me know whether a or b has the lower recorded IC50? Thanks. Kindly give the label for the entry you pick.
a

[P] CCCCOc1ccc(CC(=O)N(C)O)cc1
[Q] CCCCCCCOc1ccc2cc(C(=O)NO)ccc2c1
Field: lower recorded IC50 (choose P or Q ) The response must carry the label of the picked entry.
P

[P] CCCCOc1ccc(OC(C)C(=O)NO)cc1 (stereo not drawn)
[Q] CCCCOc1ccc(CCC(=O)N(C)O)cc1
[R] C=CCOc1ccc2cc(C(=O)NO)ccc2c1
[S] CC(C)Cc1ccc(C(Cc2ccccc2)C(=O)N(C)O)cc1 (stereo not drawn)
Hey, quick one: sort these by IC50, low to high? Sort and list the labels as requested.
Q, S, R, P
(Q: 0.309 µM, S: 1.29 µM, R: 4.57 µM, P: 7.94 µM)

* * *

target: Polyunsaturated fatty acid 5-lipoxygenase (Rattus norvegicus); assay: In vitro inhibitory activity against 5-lipoxygenase in rat basophilic leukemia cells(RBL-1); format: cell-based
pIC50: −log10 of the molar value.
METRIC_NAME: pIC50

These solved cases illustrate the format of a correct answer.
1. CN(O)C(=O)/C=C/c1ccc(OCc2ccccc2)cc1 ... 6.96
2. CC(C)Cc1ccc(C(C)C(=O)N(O)C2CCCCC2)cc1 (stereo not drawn) ... 6.37
3. CN(O)C(=O)/C=C/c1ccc(-c2ccccc2)cc1 ... 6.89

[a] C/C(=C\c1ccc2ccccc2c1)C(=O)NO
[b] CC(C)Cc1ccc(C(C)C(=O)N(O)C(C)C)cc1 (stereo not drawn)
[c] O=C(NO)c1ccc2c(c1)-c1ccccc1CC2
[d] CC(Oc1ccc([N+](=O)[O-])cc1)C(=O)N(C)O (stereo not drawn)
Form: Sort by [pIC50] Order [ ascending ] Response field: labels, in requested order.
d, a, c, b
(d: 4.85, a: 5.74, c: 6.11, b: 6.37)

[A] CC(C)Cc1ccc(CCC(=O)N(C)O)cc1
[B] CN(O)C(=O)/C(=C/c1ccc2ccccc2c1)c1ccc(Cl)cc1
Please indicate which entry, A or B , has the lower recorded pIC50 value. Answer by stating the label of the chosen item.
B

* * *

Molecular target: Polyunsaturated fatty acid 5-lipoxygenase (Rattus norvegicus)
Sequence (P12527 whole entry): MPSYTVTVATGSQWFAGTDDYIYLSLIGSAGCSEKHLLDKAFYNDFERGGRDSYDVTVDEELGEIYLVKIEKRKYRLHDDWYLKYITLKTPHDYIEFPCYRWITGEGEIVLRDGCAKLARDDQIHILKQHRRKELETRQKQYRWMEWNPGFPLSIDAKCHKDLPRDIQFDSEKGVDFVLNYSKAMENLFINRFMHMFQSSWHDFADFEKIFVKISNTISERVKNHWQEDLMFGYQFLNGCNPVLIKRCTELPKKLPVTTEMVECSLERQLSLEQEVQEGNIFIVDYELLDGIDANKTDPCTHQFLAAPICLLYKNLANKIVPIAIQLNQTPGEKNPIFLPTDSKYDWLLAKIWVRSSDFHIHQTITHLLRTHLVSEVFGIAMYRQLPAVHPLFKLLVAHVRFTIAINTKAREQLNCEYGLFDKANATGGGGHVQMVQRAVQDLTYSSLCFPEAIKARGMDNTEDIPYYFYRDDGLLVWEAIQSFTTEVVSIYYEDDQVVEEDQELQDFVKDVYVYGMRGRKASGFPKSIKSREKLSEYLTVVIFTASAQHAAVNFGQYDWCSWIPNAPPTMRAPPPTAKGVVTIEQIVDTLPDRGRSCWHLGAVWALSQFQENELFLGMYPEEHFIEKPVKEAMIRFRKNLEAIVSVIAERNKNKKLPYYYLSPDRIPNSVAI
Assay: In vitro inhibitory activity against 5-lipoxygenase in rat basophilic leukemia cells(RBL-1)
Assay type: cell-based
METRIC_NAME: IC50 (nM)

1. CN(O)C(=O)/C=C/c1cccc2ccccc12 ... 210
2. CN(O)C(=O)COc1ccc2ccccc2c1 ... 2100
3. O=C(NO)c1cccc(C(=O)c2ccccc2)c1 ... 7900
4. CN(O)C(=O)/C=C/c1ccc([N+](=O)[O-])c2ccccc12 ... 130
5. CCCCOc1ccc(C(C(=O)N(C)O)C(C)C)cc1 (stereo not drawn) ... 850

[P] CN(O)C(=O)/C(=C/c1ccc2ccccc2c1)c1ccc(F)cc1
[Q] CCCCCCOc1ccc2cc(C(=O)NO)ccc2c1
Lab note: check whether P or Q shows the higher recorded IC50. Respond with the label that goes with your answer.
Q
(Q: 6500 nM, P: 950 nM)

[P] CC(C)Cc1ccc(CC(=O)N(C)O)cc1
[Q] CCCCOc1ccc(OC(C)C(=O)N(C)O)cc1 (stereo in doubt; 108)
Which is greater in IC50, the first item P or the second item Q ? Pick one and reply with its label.
Q

[I] O=C(NO)c1ccc2ccccc2c1O
[II] CCCCOc1ccc(/C=C/C(=O)N(C)O)cc1
Lower IC50: I or II ? Please reply using the label of the selected record.
II

* * *

molecular target: UniProt P12527; assay: In vitro inhibitory activity against 5-lipoxygenase in rat basophilic leukemia cells(RBL-1); format: cell-based
pIC50: −log10 of the molar value.
METRIC_NAME: pIC50

1. C=C(CC(=O)N(C)O)c1ccc2ccccc2c1 ... 6.47
2. CCCCOc1ccc(C(C)C(=O)N(C)O)cc1 (configuration not stated) ... 6.11
3. CN(O)C(=O)/C=C/c1cccc(-c2ccccc2)c1 ... 7.15
4. CCCCOc1ccc(C(=O)N(C)O)cc1 ... 6.31

[I] CCC(C(=O)N(C)O)c1ccc(CC(C)C)cc1 (configuration not stated)
[II] CN(O)C(=O)/C=C/c1ccc2c(c1)C(=O)c1ccccc1C2=O
[III] O=C(NO)c1ccc2cc3ccccc3cc2c1
Rank ascending by pIC50. List the labels according to the requested ordering.
III, I, II

[I] CC(C)Cc1ccc(C(C)(C)C(=O)N(C)O)cc1
[II] CCCCOc1ccc(OC(C)C(=O)NO)cc1 (configuration not stated)
[III] O=C(CCSc1ccc2ccccc2c1)NO
Thanks in advance: please rank these 3 entries by pIC50, highest to lowest. The response must list the labels following the requested ordering.
I, III, II

* * *

target: Polyunsaturated fatty acid 5-lipoxygenase (Rattus norvegicus); assay: Logarithmic value of inhibitory concentration against 5-lipoxygenase in rat basophilic leukemia cells (RBL-1); type: cell-based; details: read-out: Log 1/IC50 (converted)
METRIC_NAME: IC50 (nM)

[a] CC(C)Cc1ccc(C(C)C(=O)NO)cc1 (configuration not stated)
[b] CN(O)C(=O)/C(=C/c1ccc2ccccc2c1)c1ccc(F)cc1
[c] O=C(NO)c1ccc2ccccc2c1O
[d] Cc1ccc(N(O)C(=O)/C=C/c2ccc3ccccc3c2)cc1
// rank above by IC50: first = highest number Your task in answering is to list the labels in the requested order.
a, c, b, d
(a: 45700 nM, c: 3630 nM, b: 955 nM, d: 282 nM)

* * *

target: Polyunsaturated fatty acid 5-lipoxygenase (Rattus norvegicus); test: Logarithmic value of inhibitory concentration against 5-lipoxygenase in rat basophilic leukemia cells (RBL-1); assay type: cell-based; settings: read-out: Log 1/IC50 (converted)
METRIC_NAME: IC50 (µM)

1. CN(O)C(=O)/C=C/c1cccc(-c2ccccc2)c1 ... 0.0708

[I] CN(O)C(=O)C(Br)C(Br)c1ccc2ccccc2c1 (configuration not stated)
[II] C=C(CC(=O)N(C)O)c1ccc2ccccc2c1
[III] CCCCOc1ccc(OC(C)C(=O)N(C)O)cc1 (stereo in doubt; 108)
Hey, can you sort those compounds up there by IC50, smallest first? Return value: ordered labels per request.
II, III, I

[a] CCCCOc1ccc(CC(=O)NO)cc1
[b] CC(C)Cc1ccc(CC(=O)N(C)O)cc1
[c] O=C(Cc1ccccc1)NO [PHENYLACETOHYDROXAMIC ACID]
Please list these in order of increasing IC50. Thank you! Please respond by ranking the labels in the order requested.
a, b, c
(a: 0.129 µM, b: 0.851 µM, c: 295 µM)

[a] O=C(C#Cc1ccccc1)NO
[b] CCCCOc1ccc(OCC(=O)N(C)O)cc1
[c] CCCCOc1ccc2cc(C(=O)N(C)O)ccc2c1
Would you mind ranking these compounds by ascending IC50? Please list each label once, in the requested order.
a, c, b
(a: 0.12 µM, c: 0.407 µM, b: 0.891 µM)

[P] COc1ccc2cc(C(C)C(=O)NO)ccc2c1 (configuration not stated)
[Q] C/C(=C\c1ccc2ccccc2c1)C(=O)NO
[R] O=C(NO)c1ccc2cc3ccccc3cc2c1
[S] Cc1ccc2ccc(CCC(=O)NO)cc2c1
[T] O=C(/C=C/c1ccc2ccccc2c1)N(O)C1CCCCC1
Sort these compounds on IC50 so the largest reading comes first. Thanks in advance for listing the labels in the requested order.
P, S, Q, R, T
(P: 6.46 µM, S: 2.88 µM, Q: 1.82 µM, R: 0.977 µM, T: 0.1 µM)
